# measured on: human PD-1 expressed on cells (UniProt Q15116 25-288)
# Sequence (Q15116 25-288): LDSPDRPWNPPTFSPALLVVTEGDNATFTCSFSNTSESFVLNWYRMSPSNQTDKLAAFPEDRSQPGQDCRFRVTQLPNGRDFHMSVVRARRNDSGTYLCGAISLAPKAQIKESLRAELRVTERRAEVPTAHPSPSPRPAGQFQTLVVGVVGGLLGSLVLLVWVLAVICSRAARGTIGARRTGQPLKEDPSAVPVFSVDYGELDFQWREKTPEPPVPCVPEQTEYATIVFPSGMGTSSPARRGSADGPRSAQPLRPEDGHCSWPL
# test description: FACS binding
measurement label: pEC50
Hey, just a heads up that pEC50 is the negative log base 10 of the concentration in molar.

- binder: "AS25067_HCAb (antibody, V domains shown) VH: QVHLMESGGGAVQTGGSLRLSCAVSGISISPDCMGWFRQAPGKKREAVTTIFANTGSARYGDSVKGRFTSSQGNAKNTLYLQMDSVKLDDTGTYYCAARFTGGDCFDHQPLAWRFWGQGTQVTVSS"
  pEC50: 8.30
- binder: "AS25149_HCAb (antibody, V domains shown) VH: QVQLVESGGGSVQSGGSLKLSCAVSGSGYSYSRGCFAWFQQRPGKEREGVAIINSDGHTRYSDSVQGRFIISQDKAKNTLYLQMNSLKPDDAAMYYCAYDRNQCYVLLDRLRLPGTFSDWGQGTQVTVSS"
  pEC50: 7.97
- binder: "AS25071_HCAb (antibody, V domains shown) VH: EVQLAESGGGSVQSGGSLRLSCAVSGSGYSYSRGCFAWFQQRPGKEREGVAIINSDGHTAYSDSVQGRFIISQDKAKNTLYLQMNSLKPDDTAMYYCAYDRSQCYVLRDRLRLPDTFTDWGQGTQVTVSS"
  pEC50: 8.32

Reported pEC50 ( AS25396_HCAb (antibody, V domains shown) VH: QVHLMESGGGSVQAGGSLRLSCVVSGISISPDCMGWFRQAPGKKREAVATIFTNTRRTRYGDSVKGRVTSSQGNAKNTLYLKMDNLRHDDTATYYCAARYTGGDCFNLDPLSWRFWGQGTQVTVSS ) = 8.42

Reported pEC50 ( AS24984_HCAb (antibody, V domains shown) VH: QVHLMESGGGSVPSGGSLRLSCAVSGSGYSYSRGCFAWFQQRPGKEREGVAIINMDGHTRYSDSVQGRFIISQDKAKNTLHLQMNTLRPDDTAMYYCAYDRSQCYVLSDRLRLPGTFSDWGQGTQVTVSS ) = 8.14

Reported pEC50 ( AS25037_HCAb (antibody, V domains shown) VH: EVQLAESGGGSVQAGGSLKLSCLASQWISSDCGMAWYRQAPGKERELVSRISSDDTTTYADSVKGRFTISQDSAKNTLYLQMNKLKTEDTGVYYCAAEAKSTITSLCYPLNYWGQGTQVTVSS ) = 8.18

Reported pEC50 ( AS25115_HCAb (antibody, V domains shown) VH: QVHLVESGGASVQAGGSLRLSCAATAYTASNYCMGWFRQSPGKEREAVASINDDGVTSYADSVKGRFTISQDSAKKTLYLQMNRLKPEDTAMYYCAATPDGYCYAERLSRWRYEFWGQGTQVTVSS ) = 8.39

Reported pEC50 ( AS25435_HCAb (antibody, V domains shown) VH: QVQLVESGGGSVQAGGSLRLSCAATAYTASFYCMGWFRQAPGKEREAVASINDDGVTMYADSVKGQFTISQDSATKTLYLQMNRLKPEDTAMYYCAATPEGYCYAERLSTWRYTFWGQGTQVTVSS ) = 8.31
